- Tested on: PIKFYVE
- CONDITIONS_USED: Compound Concentration (nM):1000;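 further: KINOMEscan scanMAX binding as percent activity remaining versus control; lower means stronger binding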
// reported Percent Control per item

| COMPOUND | RESULT_UNITS | Percent Control |
| --- | --- | --- |
| CC(C)COC(=O)c1ccc2c(c1)/C(=C/Nc1ccc(S(N)(=O)=O)cc1)C(=O)N2 [GW416981X] | % | 100 |
| COc1cccc(-c2c[nH]c3c(N/N=C/c4ccncc4)ncnc23)c1 [GW814408X] | % | 1.1 |
| COc1cccc(-n2ncc3c(N/N=C/c4ccncc4)ncnc32)c1 [GW784752X] | % | 18 |
| COc1cc(C)c(N(C)C(=O)CN(C)C)cc1Nc1nc(Nc2cccc(F)c2C(N)=O)c2cc[nH]c2n1 [GSK2219385] | % | 97 |
| COc1cc(/C=N/Nc2ncnc3[nH]ncc23)ccc1O [GW578748X] | % | 28 |

---

- Test system: EPHB1
- CONDITIONS_USED: Compound Concentration (nM):1000
// reported Percent Control per item

| MOLECULE | Percent Control |
| --- | --- |
| COc1ccccc1-c1cc(/C=C2\C(=O)Nc3ncc(Br)cc32)cc(Br)c1O [GW442130X] | 100% |
| O=C(Nc1n[nH]c2nc(-c3ccc(O)cc3)c(Br)cc12)C1CC1 | 100% |
| COc1cc2ncnc(Nc3ccc4c(cnn4Cc4ccccc4)c3)c2cc1OC.Cl [GW282449A] | 100% |
| COc1cc(C)c(N(C)C(=O)CN(C)C)cc1Nc1nc(Nc2cccc(F)c2C(N)=O)c2cc[nH]c2n1 | 99% |
| COc1ccc2cc(-c3c(-c4ccncc4)nc(-c4ccc(S(C)(=O)=O)cc4C)n3C)ccc2c1 | 64% |
| CC(C)COC(=O)c1ccc2c(c1)/C(=C/Nc1ccc(S(N)(=O)=O)cc1)C(=O)N2 [GW416981X] | 100% |
| COc1cc(/C=N/Nc2ncnc3[nH]ncc23)ccc1O [GW578748X] | 100% |
| COc1cc2ncn(-c3cc(O[C@H](C)c4ccccc4Cl)c(C(N)=O)s3)c2cc1OC [GSK237701A] | 81% |

---

- System: PRP4
- Construct: gene PRPF4B
- CONDITIONS_USED: Compound Concentration (nM):1000
MEASURE: Percent Control

| COMPOUND | ASSAY_SYSTEM | READING |
| --- | --- | --- |
| Cl.O=C(Nc1ccc(Oc2ccc3[nH]c(NC(=O)c4ccco4)nc3c2)cc1)Nc1cc(C(F)(F)F)ccc1F [GW683134A] | PRP4 | 100% |
| COc1cc(C=NNc2ncnc3c2cnn3-c2ccccc2)ccc1O [GW513184X] | PRP4 | 100% |
| CC(C)COC(=O)c1ccc2c(c1)/C(=C/Nc1ccc(S(N)(=O)=O)cc1)C(=O)N2 [GW416981X] | PRP4 | 96% |
| COc1cc2ncn(-c3cc(O[C@H](C)c4ccccc4Cl)c(C(N)=O)s3)c2cc1OC [GSK237701A] | PRP4 | 61% |
| Cl.O=C(Nc1ccc(Oc2ccc3[nH]c(NC(=O)c4ccccc4)nc3c2)cc1)Nc1cc(C(F)(F)F)ccc1F [GW709042A] | PRP4 | 100% |
| COc1ccccc1-c1cc(/C=C2\C(=O)Nc3ncc(Br)cc32)cc(Br)c1O [GW442130X] | PRP4 | 96% |
